Target: T1, LIN28A (mouse, UniProt Q8K3Y3 1-209)
T1 sequence: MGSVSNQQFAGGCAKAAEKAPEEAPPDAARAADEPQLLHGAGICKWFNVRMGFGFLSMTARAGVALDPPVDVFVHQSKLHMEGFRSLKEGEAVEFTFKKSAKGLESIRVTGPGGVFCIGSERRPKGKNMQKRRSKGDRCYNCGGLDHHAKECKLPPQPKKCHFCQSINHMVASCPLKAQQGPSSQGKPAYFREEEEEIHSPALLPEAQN
Experiment: SPR
Parameter Measured: Kd (nM)

{"columns": ["Binder", "Measured Result"],
 "data": [
  ["GGGGUAGUGAUUUUACCCUGUUUAGGAGAU (structured_RNA) [preE-let-7f-1 biotin]", 92]
]}
